Each recorded value in this set is attributed to ChEMBL document CHEMBL4765383.

target: Gap junction beta-2 protein (Homo sapiens) (UniProt P29033); assay: Inhibition of human Cx26 expressed in kanamycin-resistant Escherichia coli LB2003 cells in medium containing […] K+ and 500 uM IPTG by measuring cell growth at 15 uM after 18 hrs by growth complementation assay; parameters: scale not given: the % may be the effect or the level left
Measured Parameter: Activity (%)

Cc1ccc(OC[C@H]2O[C@H](O[C@@H]3[C@@H](O)[C@H](O[C@H]4O[C@H](CN)[C@@H](O)[C@H](O)[C@H]4O)[C@@H](N)C[C@H]3N)[C@H](O)[C@@H](N)[C@@H]2O)cc1; 19.3
CCCCCCCCCC(=O)NC[C@H]1O[C@H](O[C@H]2[C@H](O)[C@@H](O[C@H]3O[C@H](CO)[C@@H](O)[C@H](N)[C@H]3O)[C@H](N)C[C@@H]2N)[C@H](O)[C@@H](O)[C@@H]1O; 16.1
CCCCCCCCCCCC(=O)NC[C@H]1O[C@H](O[C@H]2[C@H](O)[C@@H](O[C@H]3O[C@H](CO)[C@@H](O)[C@H](N)[C@H]3O)[C@H](N)C[C@@H]2N)[C@H](O)[C@@H](O)[C@@H]1O; 16.4
Cc1ccc(S(=O)(=O)OC[C@H]2O[C@H](O[C@@H]3[C@@H](O)[C@H](O[C@H]4O[C@H](CN)[C@@H](O)[C@H](O)[C@H]4O)[C@@H](N)C[C@H]3N)[C@H](O)[C@@H](N)[C@@H]2O)cc1; 26.8
NC[C@H]1O[C@H](O[C@H]2[C@H](O)[C@@H](O[C@H]3O[C@H](COc4ccc(Cl)cc4)[C@@H](O)[C@H](N)[C@H]3O)[C@H](N)C[C@@H]2N)[C@H](O)[C@@H](O)[C@@H]1O; 44.4
NC[C@H]1O[C@H](O[C@H]2[C@H](O)[C@@H](O[C@H]3O[C@H](COc4ccc([N+](=O)[O-])cc4)[C@@H](O)[C@H](N)[C@H]3O)[C@H](N)C[C@@H]2N)[C@H](O)[C@@H](O)[C@@H]1O; 35.9
COc1ccc2cc(C(=O)NC[C@H]3O[C@H](O[C@H]4[C@H](O)[C@@H](O[C@H]5O[C@H](CO)[C@@H](O)[C@H](N)[C@H]5O)[C@H](N)C[C@@H]4N)[C@H](O)[C@@H](O)[C@@H]3O)ccc2c1; 15.1

A = N[C@@H]1[C@@H](O)[C@@H](O[C@@H]2[C@@H](O)[C@H](O[C@H]3O[C@H](CNC(=O)c4ccc5cc(O)ccc5c4)[C@@H](O)[C@H](O)[C@H]3O)[C@@H](N)C[C@H]2N)O[C@H](CO)[C@H]1O
B = NC[C@H]1O[C@H](O[C@H]2[C@H](O)[C@@H](O[C@H]3O[C@H](CNC(=O)c4ccccc4-c4c5ccc(=O)cc-5oc5cc(O)ccc45)[C@@H](O)[C@H](N)[C@H]3O)[C@H](N)C[C@@H]2N)[C@H](O)[C@@H](O)[C@@H]1O
C = NC[C@H]1O[C@H](O[C@H]2[C@H](O)[C@@H](O[C@H]3O[C@H](COc4ccccc4)[C@@H](O)[C@H](N)[C@H]3O)[C@H](N)C[C@@H]2N)[C@H](O)[C@@H](O)[C@@H]1O
Task for the reader: rank each entry by its Activity, from the minimum upward. Please list each label once, in the requested order.
A, C, B
